What reduction in tumor growth was measured for each of the following?
Tested on: MCF7/Dox xenograft tumors
Assay: Independent comparative xenograft study of C1-C4
Format: in vivo, mice
Details: n=5 per group, FIG. 23C
Numbers only, in %.

Enquiry: Sample C#CCC(OC(=O)N[C@H]1C[C@H](O[C@H]2C[C@](O)(C(=O)CO)Cc3c(O)c4c(c(O)c32)C(=O)c2c(OC)cccc2C4=O)O[C@@H](C)[C@H]1O)c1ccc(NC(=O)C(C)C)cc1 (stereo partly shown) [C4] — what was its reduction in tumor growth?
Return: 6

Enquiry: Similarly, COc1cccc2c1C(=O)c1c(O)c3c(c(O)c1C2=O)C[C@@](O)(C(=O)CO)C[C@@H]3O[C@H]1C[C@H](NC(=O)OC(Cc2cn(CCCCCC[P+](c3ccccc3)(c3ccccc3)c3ccccc3)nn2)c2ccc(NC(=O)C(C)C)cc2)[C@H](O)[C@H](C)O1 (stereo partly shown) [C3] ?
Return: 9

Enquiry: Similarly, COc1cccc2c1C(=O)c1c(O)c3c(c(O)c1C2=O)C[C@@](O)(C(=O)CO)C[C@@H]3OC1C[C@H](NC(=O)OC(Cc2cn(CCCCCC[P+](c3ccccc3)(c3ccccc3)c3ccccc3)nn2)c2ccc(NC(=O)C(Cl)Cl)cc2)[C@H](O)[C@H](C)O1.[Br-] (stereo partly shown) [C1] ?
Return: 58

Now examine the next entry.
Enquiry: Sample C#CCC(OC(=O)N[C@H]1C[C@H](O[C@H]2C[C@](O)(C(=O)CO)Cc3c(O)c4c(c(O)c32)C(=O)c2c(OC)cccc2C4=O)O[C@@H](C)[C@H]1O)c1ccc(NC(=O)C(Cl)Cl)cc1 (stereo partly shown) [C2] — what was its reduction in tumor growth?
Return: 16

* * *

System: HepG2 cells
Assay: WST cell viability assay
Type: cell-based, human
Details: HepG2 cells, WST assay; read-out: IC50 (cytotoxicity)
REPORTED PROPERTY: pIC50
Give bare numbers, as −log10 of the molar value.

Enquiry: Sample C#CCC(OC(=O)N[C@H]1C[C@H](O[C@H]2C[C@](O)(C(=O)CO)Cc3c(O)c4c(c(O)c32)C(=O)c2c(OC)cccc2C4=O)O[C@@H](C)[C@H]1O)c1ccc(NC(=O)C(Cl)Cl)cc1 (stereo partly shown) — what was its pIC50?
Return: 4.97
